- tested_system: muscarinic receptors (3H-QNB site, cerebral cortex)
- measurement_conditions: 0.27nM 3H-QNB, tris buffer pH 7.7, 37° C., 30 min; rat cerebral cortex
Counter-ions that a name gives are not always drawn.
Lab note: anything with IC50 below 5 µM is marked 1 (yes); values at 5 µM or higher are marked 0 (no).

molecule | group_label
CCc1noc(C23CCCN(C2)C3)n1 [Example E5, oxalate salt] | 0 (no)

Query: Item CO/N=C/C12CCCN(C1)C2 [Example E14, oxalate salt] : IC50 beneath 5 µM, strictly?
Reply: 0 (no)

Query: Consider CCCc1noc(C23CCCN(C2)C3)n1 [Example E6, oxalate salt] . Does its IC50 lie strictly below 5 µM?
Reply: 1 (yes)

Query: Consider COCc1noc(C23CCCN(C2)C3)n1 [Example E9, oxalate salt] . Does its IC50 lie strictly below 5 µM?
Reply: 0 (no)

Query: A record lists c1ncc(C23CCCN(C2)C3)o1 [Example E3, oxalate salt] . Is its IC50 below 5 µM?
Reply: 0 (no)

Query: Hi there! Is IC50 for Nc1noc(C23CCCN(C2)C3)n1 [Example E1] below 5 µM, do you know?
Reply: 0 (no)

Query: I'd appreciate it if you could check whether CCCCCc1noc(C23CCCN(C2)C3)n1 [Example E10, oxalate salt] has IC50 smaller than 5 µM.
Reply: 1 (yes)

The origin of these recorded values is patent US5043343A.
